Entry source: ChEMBL document CHEMBL4665717

Test target: Vasopressin V2 receptor (Homo sapiens)
Sequence (P30518 whole entry): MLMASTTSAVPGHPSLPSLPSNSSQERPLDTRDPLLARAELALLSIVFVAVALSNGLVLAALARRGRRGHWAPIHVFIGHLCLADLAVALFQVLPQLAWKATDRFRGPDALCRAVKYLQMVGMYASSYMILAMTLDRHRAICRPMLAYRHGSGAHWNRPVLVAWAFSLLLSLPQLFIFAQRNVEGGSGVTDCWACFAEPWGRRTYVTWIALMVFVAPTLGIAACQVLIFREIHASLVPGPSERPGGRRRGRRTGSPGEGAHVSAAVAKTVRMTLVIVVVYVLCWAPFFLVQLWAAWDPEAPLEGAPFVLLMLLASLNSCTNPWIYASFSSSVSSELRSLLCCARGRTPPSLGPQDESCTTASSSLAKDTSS
Reported metric: Ki (nM)
Output spec: scalar in nM, unitless text.

-- ask Give recorded Ki. `Clc1ccc2c(c1)CCCc1nnc([C@H]3CC[C@H](Oc4ccccn4)CC3)n1-2`
-- reply 560

---

Test target: Vasopressin V1a receptor (Homo sapiens)
Sequence (P37288 whole entry, looked up): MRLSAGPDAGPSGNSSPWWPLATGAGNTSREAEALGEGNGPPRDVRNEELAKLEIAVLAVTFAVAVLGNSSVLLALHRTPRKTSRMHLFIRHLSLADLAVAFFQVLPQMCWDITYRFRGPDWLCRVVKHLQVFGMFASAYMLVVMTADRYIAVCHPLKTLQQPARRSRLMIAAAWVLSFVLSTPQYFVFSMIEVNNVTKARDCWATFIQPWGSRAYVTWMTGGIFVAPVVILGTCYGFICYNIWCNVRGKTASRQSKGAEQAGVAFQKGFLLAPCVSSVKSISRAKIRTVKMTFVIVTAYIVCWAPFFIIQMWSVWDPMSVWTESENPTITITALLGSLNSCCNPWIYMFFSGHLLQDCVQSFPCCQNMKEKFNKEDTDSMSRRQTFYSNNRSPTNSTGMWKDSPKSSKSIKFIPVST
Assay overview: Inhibition of human V1a receptor expressed in human 1321N1 cells assessed as decrease in Arg8-vasopressin-stimulated calcium flux at 10 uM by fluorometric calcium assay relative to control
Type: functional, cell-based
Reported metric: inhibition (%)
Output spec: scalar in %, unitless text.

Please review the following examples before continuing.
CC1(C)Nc2cc(Cl)ccc2-n2c(C3CCN(c4ccccn4)CC3)nnc21    28
CC(=O)N1c2cc(Cl)ccc2-n2c(C3CCN(c4ccccn4)CC3)nnc2C1(C)C    43

-- ask Give recorded inhibition. `Clc1ccc2c(c1)nc1[nH]nc(C3CCN(c4ccccn4)CC3)n12`
-- reply 11
